target: Fc region of human immunoglobulin (human); assay: SPR, Fc on CM4 chip, pH 4.5, 1:1 Langmuir
reported_metric: pKd
Lab note — pKd values are minus log10 of concentrations in M.

INSERT INTO results (binder, reported_metric, quantitative_readout) VALUES
  ('M-PG19 (designed binder) MDTYKLILNGKTLKGETTTEAVDAATAEKVFKHYANEHGVHGHWTYDPETKTFTVTE', 'pKd', 6.00);

Turning now to a further record.
Fill blank: measured pKd of the binder M-PG07 (designed binder) MDTYKLILNGKTLKGETTTEAVDAATAEKVFKQYANEHGVDGEWTYDPETKTFTVTE is ____.
6.64
